Provide the reported half-life of each item.
experiment: Half life in rat at 2 mg/kg, po or 1 mg/kg, iv; type: ADME, organism-based; conditions: in vivo
Number only, in h; omit the unit.

// query Look up and state reported half-life for CN(C)CCCNC(=O)c1ccc2c(c1)CC(c1nc3ccc(-c4ccnc(N)n4)cc3[nH]1)CO2 (configuration not stated)
// result 3

// query Look up and state reported half-life for Nc1nccc(-c2ccc3nc(C4COc5ccc(C(=O)NCCc6cccnc6)cc5C4)[nH]c3c2)n1 (configuration not stated)
// result 3.6

---

assay: Selectivity ratio of IC50 for PKA to IC50 to ROCK
Assay Readout: Ratio IC50
The response must contain the number and no unit.

// query Look up and state reported Ratio IC50 for Nc1nccc(-c2ccc3nc(C4COc5ccc(C(=O)NCc6ccccc6)cc5C4)[nH]c3c2)n1 (stereo not given)
// result 78

// query Look up and state reported Ratio IC50 for CN(C)C(=O)c1ccc2c(c1)CC(c1nc3ccc(-c4ccnc(N)n4)cc3[nH]1)CO2 (stereo not given)
// result 13

// query Look up and state reported Ratio IC50 for Cn1c(C2COc3ccccc3O2)nc2cc(-c3ccncc3)ccc21 (stereo not given)
// result 2

// query Look up and state reported Ratio IC50 for Nc1nccc(-c2ccc3nc(C4COc5ccc(C(=O)NCCc6ccccc6)cc5C4)[nH]c3c2)n1 (stereo not given)
// result 412

// query Look up and state reported Ratio IC50 for c1ccc2c(c1)CC(c1nc3ccc(-c4ccncc4)cc3[nH]1)CO2 (stereo not given)
// result 148

// query Look up and state reported Ratio IC50 for COCCn1c(C2COc3ccccc3O2)nc2ccc(-c3ccncc3)cc21 (stereo not given)
// result 28

// query Look up and state reported Ratio IC50 for c1ccc2c(c1)OCC(c1nc3ccc(-c4ccncc4)cc3n1CC1CC1)O2 (stereo not given)
// result 35

// query Look up and state reported Ratio IC50 for COc1cccc2c1OCC(c1nc3ccc(-c4ccnc(N)n4)cc3[nH]1)C2 (stereo not given)
// result 0.9

// query Look up and state reported Ratio IC50 for CN(C)CCNC(=O)c1ccc2c(c1)CC(c1nc3ccc(-c4ccnc(N)n4)cc3[nH]1)CO2 (stereo not given)
// result 219

// query Look up and state reported Ratio IC50 for c1ccc(CCn2c(C3COc4ccccc4O3)nc3ccc(-c4ccncc4)cc32)cc1 (stereo not given)
// result 13

// query Look up and state reported Ratio IC50 for Nc1nccc(-c2ccc3nc(C4COc5ccc(C(=O)NC6CCCCC6)cc5C4)[nH]c3c2)n1 (stereo not given)
// result 18

// query Look up and state reported Ratio IC50 for Nc1nccc(-c2ccc3nc(C4COc5ccc(C(=O)NCc6cccnc6)cc5C4)[nH]c3c2)n1 (stereo not given)
// result 105

// query Look up and state reported Ratio IC50 for Nc1nccc(-c2ccc3nc(C4COc5ccc(C(=O)NCCc6cccnc6)cc5C4)[nH]c3c2)n1 (stereo not given)
// result 1770

// query Look up and state reported Ratio IC50 for Nc1nccc(-c2ccc3nc(C4COc5ccccc5C4)[nH]c3c2)n1 (stereo not given)
// result 24

// query Look up and state reported Ratio IC50 for Nc1nccc(-c2ccc3nc(C4COc5ccc(C(=O)NCCO)cc5C4)[nH]c3c2)n1 (stereo not given)
// result 132

// query Look up and state reported Ratio IC50 for COc1ccc2c(c1)CC(c1nc3c(OCCCO)cc(-c4ccncc4)cc3[nH]1)CO2 (stereo not given)
// result 9

// query Look up and state reported Ratio IC50 for COc1cccc2c1CC(c1nc3ccc(-c4ccnc(N)n4)cc3[nH]1)CO2 (stereo not given)
// result 12

// query Look up and state reported Ratio IC50 for c1ccc(Cn2c(C3COc4ccccc4O3)nc3ccc(-c4ccncc4)cc32)cc1 (stereo not given)
// result 5

// query Look up and state reported Ratio IC50 for COc1ccc2c(c1)CC(c1nc3ccc(-c4ccnc(N)n4)cc3[nH]1)CO2 (stereo not given)
// result 285

// query Look up and state reported Ratio IC50 for c1ccc2c(c1)OCC(c1nc3ccc(-c4ccncc4)cc3n1C1CCOCC1)O2 (stereo not given)
// result 19

// query Look up and state reported Ratio IC50 for Cn1c(C2COc3ccccc3O2)nc2ccc(-c3ccncc3)cc21 (stereo not given)
// result 131

// query Look up and state reported Ratio IC50 for COc1ccc2c(c1)OCC(c1nc3ccc(-c4ccnc(N)n4)cc3[nH]1)C2 (stereo not given)
// result 4.6

// query Look up and state reported Ratio IC50 for Cc1cc(-c2ccncc2)cc2[nH]c(C3COc4ccccc4O3)nc12 (stereo not given)
// result 6

// query Look up and state reported Ratio IC50 for Nc1nccc(-c2ccc3nc(C4COc5ccc(C(=O)NCCc6ccccn6)cc5C4)[nH]c3c2)n1 (stereo not given)
// result 709

From: ChEMBL document CHEMBL1155401
